target: cloned human P2Y1 receptors (Homo sapiens (Human), UniProt P47900); experiment: Binding Assay A: membrane binding assay, [33P] 2MeS-ADP; details: values marked *; WGA FlashPlate, [33P] 2MeS-ADP displacement; read-out: P2Y1 Ki (nM) *Using binding assay A
Sequence (P47900 whole entry): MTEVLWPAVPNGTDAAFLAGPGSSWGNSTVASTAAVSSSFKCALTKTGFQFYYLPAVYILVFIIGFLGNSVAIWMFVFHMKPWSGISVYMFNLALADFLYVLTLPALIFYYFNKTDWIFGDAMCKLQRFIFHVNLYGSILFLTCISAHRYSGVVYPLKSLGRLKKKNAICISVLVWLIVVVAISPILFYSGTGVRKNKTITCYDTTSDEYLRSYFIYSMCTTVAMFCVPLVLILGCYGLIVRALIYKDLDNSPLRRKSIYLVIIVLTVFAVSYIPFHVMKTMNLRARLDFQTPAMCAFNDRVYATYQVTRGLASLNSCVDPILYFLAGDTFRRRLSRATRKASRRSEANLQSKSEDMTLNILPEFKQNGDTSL
compounds and their reported Ki
MEASUREMENT NAME: Ki (nM)

{"COMPOUND": "CC(C)(C)CN1CCC2(CC1)CN(c1ccccc1NC(=O)Nc1nc3ccc(Cl)cc3s1)c1c(O)cccc12", "RESULT": 7.5}
{"COMPOUND": "Cc1ccc2nc(NC(=O)Nc3ccccc3N3CC4(CCN(CC(C)(C)C)CC4)c4c(F)ccc(O)c43)sc2c1", "RESULT": 3.7}
{"COMPOUND": "CC(C)(C)CN1CCC2(CC1)CN(c1ccccc1NC(=O)Nc1ccc(OC(F)(F)F)cc1)c1c(O)cccc12", "RESULT": 10.3}
{"COMPOUND": "CC(C)CN1CCC2(CC1)CN(c1ccccc1NC(=O)Nc1ccc(OC(F)(F)F)cc1)c1ccccc12 [Comparator 2, reference compound]", "RESULT": 20.2}

----------
molecules and their reported Ki
target: cloned human P2Y1 receptors (Homo sapiens (Human), UniProt P47900); experiment: Binding Assay B: Scintillation Proximity Assay (SPA) for P2Y1 binding; conditions: SPA, [33P] 2MeS-ADP displacement; read-out: P2Y1 Ki (nM) using binding assay B
Counter-ions that a name gives are not always drawn.

{"MOLECULE": "COc1ccc2nc(-c3ccc(O)c4c3C3(CCN(CC(C)(C)C)CC3)CN4c3ccccc3NC(=O)Nc3nc4ccc(Cl)cc4s3)sc2c1 [Example 131]", "Ki (nM)": 22.5}
{"MOLECULE": "CC(C)(C)CN1CCC2(CC1)CN(c1ccccc1NC(=O)Nc1nc3ccc(Cl)nc3s1)c1c(O)ccc(-c3nc4ccc(Cl)cc4s3)c12 [Example 125]", "Ki (nM)": 21.6}
{"MOLECULE": "CC(C)(C)CN1CCC2(CC1)CN(c1ccccc1NC(=O)Nc1csc(Cl)n1)c1c(O)ccc(Cl)c12 [Example 61]", "Ki (nM)": 5.8}
{"MOLECULE": "CC(C)(C)CN1CCC2(CC1)CN(c1ccccc1NC(=O)Nc1csc(Cl)n1)c1c(O)ccc(-c3nc4ccc(Br)cc4s3)c12 [Example 119]", "Ki (nM)": 18.4}
{"MOLECULE": "CC(C)(C)CN1CCC2(CC1)CN(c1ccccc1NC(=O)Nc1nc3ccc(Cl)nc3s1)c1c(O)cc(F)c(-c3ccc(F)cc3)c12 [Example 152]", "Ki (nM)": 10.2}
{"MOLECULE": "CC(C)(C)CN1CCC2(CC1)CN(c1ccccc1NC(=O)Nc1ccc(F)c(F)c1)c1c(O)ccc(C(F)(F)F)c12 [Example 15]", "Ki (nM)": 5.1}
{"MOLECULE": "CC(C)(C)CN1CCC2(CC1)CN(c1ccccc1NC(=O)Nc1ccc(OC(F)(F)F)cc1)c1c(O)ccc(-c3nc4ccc(Br)cc4s3)c12 [Example 121]", "Ki (nM)": 45.6}
{"MOLECULE": "COc1nsc(NC(=O)Nc2ccccc2N2CC3(CCN(CC(C)(C)C)CC3)c3c(Cl)ccc(O)c32)n1 [Example 50, TFA]", "Ki (nM)": 6.8}
{"MOLECULE": "CC(C)(C)CN1CCC2(CC1)CN(c1ccccc1NC(=O)Nc1nc3ccc(Cl)cc3s1)c1c(O)ccc(Cl)c12 [Example 38]", "Ki (nM)": 10}
{"MOLECULE": "CC(C)C(=O)N1CCc2nc(NC(=O)Nc3ccccc3N3CC4(CCN(CC(C)(C)C)CC4)c4c(Cl)ccc(O)c43)sc2C1 [Example 73]", "Ki (nM)": 17.9}
{"MOLECULE": "CC(C)(C)CN1CCC2(CC1)CN(c1ccccc1NC(=O)Nc1nc3ccc(Cl)nc3s1)c1c(O)ccc(-c3nc4ccc(F)cc4s3)c12 [Example 144]", "Ki (nM)": 13}
{"MOLECULE": "CC(C)(C)CN1CCC2(CC1)CN(c1ccccc1NC(=O)Nc1ccc(OC(F)(F)F)cc1)c1c(O)cc(F)c(-c3nc4cc(Cl)ccc4s3)c12 [Example 137]", "Ki (nM)": 44.7}
{"MOLECULE": "CC(C)(C)CN1CCC2(CC1)CN(c1ncccc1NC(=O)Nc1nc3ccc(Cl)nc3s1)c1c(O)ccc(C(F)(F)F)c12 [Example 176]", "Ki (nM)": 7.2}
{"MOLECULE": "CC(C)CN1CCCC1c1ccc(NC(=O)Nc2ccccc2N2CC3(CCN(CC(C)(C)C)CC3)c3c(F)c(F)cc(O)c32)cc1 (centres unmarked) [Example 104]", "Ki (nM)": 17}
{"MOLECULE": "CC(C)(C)CN1CCC2(CC1)CN(c1ccccc1NC(=O)Nc1nc3ccc(Cl)cc3s1)c1c(O)ccc(C(F)(F)F)c12 [Example 21]", "Ki (nM)": 30.9}
{"MOLECULE": "CC(C)CN1CCCC1c1ccc(NC(=O)Nc2ccccc2N2CC3(CCN(CC(C)(C)C)CC3)c3c(Cl)ccc(O)c32)cc1 (centres unmarked) [Example 57]", "Ki (nM)": 10.4}
{"MOLECULE": "CC(C)(C)CN1CCC2(CC1)CN(c1ccccc1NC(=O)Nc1ccc(C(C)(C)C)cc1)c1c(O)cc(F)c(F)c12 [Example 9]", "Ki (nM)": 10.5}
{"MOLECULE": "CC(C)(C)CN1CCC2(CC1)CN(c1ccccc1NC(=O)Nc1ccc(OC(F)(F)F)cc1)c1c(O)c(F)cc(-c3ccc(F)cc3)c12 [Example 153]", "Ki (nM)": 11.5}
{"MOLECULE": "CC(C)(C)CN1CCC2(CC1)CN(c1ccccc1NC(=O)Nc1nc3ccc(F)cc3s1)c1c(O)c(F)cc(Cl)c12 [Example 100]", "Ki (nM)": 7.9}
{"MOLECULE": "CC(C)(C)CN1CCC2(CC1)CN(c1ccccc1NC(=O)Nc1nc3ccc(F)cc3s1)c1c(O)ccc(C(F)(F)F)c12 [Example 3]", "Ki (nM)": 8.9}
{"MOLECULE": "CC(C)(C)CN1CCC2(CC1)CN(c1ccccc1NC(=O)Nc1csc(C(F)(F)F)n1)c1c(O)cc(F)c(-c3ccc(C(F)(F)F)nc3)c12 [Example 159]", "Ki (nM)": 281}
{"MOLECULE": "CC(C)(C)CN1CCC2(CC1)CN(c1ccccc1NC(=O)Nc1nc3ccc(Cl)nc3s1)c1c(O)ccc(C(F)(F)F)c12 [Example 175]", "Ki (nM)": 13.4}
{"MOLECULE": "CC(C)(C)CN1CCC2(CC1)CN(c1ccccc1NC(=O)Nc1csc(C(F)(F)F)n1)c1c(O)cc(F)c(-c3ccc(Cl)cc3)c12 [Example 158]", "Ki (nM)": 15.4}
{"MOLECULE": "CC(C)c1nsc(NC(=O)Nc2ccccc2N2CC3(CCN(CC(C)(C)C)CC3)c3c(C(F)(F)F)ccc(O)c32)n1 [Example 19]", "Ki (nM)": 7.5}
{"MOLECULE": "CC(C)(C)CN1CCC2(CC1)CN(c1ccccc1NC(=O)Nc1csc(Cl)c1)c1c(O)ccc(C(F)(F)F)c12 [Example 26]", "Ki (nM)": 7.3}
{"MOLECULE": "CC(C)(C)CN1CCC2(CC1)CN(c1ccccc1NC(=O)Nc1nc3ccc(F)cc3s1)c1c(O)ccc(-c3nc4cc(F)ccc4s3)c12 [Example 138]", "Ki (nM)": 24.6}

----------
biological target: cloned human P2Y1 receptors (Homo sapiens (Human)); assay: Binding Assay B: Scintillation Proximity Assay (SPA) for P2Y1 binding

{"COMPOUND": "CC(C)CN1CCCC1c1ccc(NC(=O)Nc2ccccc2N2CC3(CCN(CC(C)(C)C)CC3)c3c(F)cc(F)c(O)c32)cc1 (stereo not shown) [Example 99]", "TARGET ENTITY": "cloned human P2Y1 receptors (Homo sapiens (Human))", "Ki": "14.2 nM"}

----------
target: cloned human P2Y1 receptors (Homo sapiens (Human), UniProt P47900); experiment: Binding Assay B: Scintillation Proximity Assay (SPA) for P2Y1 binding; details: SPA, [33P] 2MeS-ADP displacement; read-out: P2Y1 Ki (nM) using binding assay B
Where a name gives a salt, the structure may show the parent alone.
compounds and their reported Ki
MEASUREMENT NAME: Ki

{"COMPOUND": "CC(C)(C)CN1CCC2(CC1)CN(c1ccccc1NC(=O)Nc1csc(Cl)n1)c1c(O)ccc(-c3nc4c(Cl)cccc4s3)c12 [Example 118]", "TARGET ENTITY": "cloned human P2Y1 receptors (Homo sapiens (Human), UniProt P47900)", "RESULT": "15.5 nM"}
{"COMPOUND": "COc1ccc2nc(NC(=O)Nc3ccccc3N3CC4(CCN(CC(C)(C)C)CC4)c4c(-c5nc6cc(F)ccc6s5)ccc(O)c43)sc2c1 [Example 146]", "TARGET ENTITY": "cloned human P2Y1 receptors (Homo sapiens (Human), UniProt P47900)", "RESULT": "11.2 nM"}
{"COMPOUND": "CC(C)(C)CN1CCC2(CC1)CN(c1ccccc1NC(=O)Nc1nc3ccc(F)cc3s1)c1c(O)ccc(-c3nc4c(Cl)cccc4s3)c12 [Example 116]", "TARGET ENTITY": "cloned human P2Y1 receptors (Homo sapiens (Human), UniProt P47900)", "RESULT": "36.2 nM"}
{"COMPOUND": "CC(C)CN1CCC2(CC1)CN(c1ccccc1NC(=O)Nc1nc3ccc(F)cc3s1)c1c(O)ccc(Cl)c12 [Example 4]", "TARGET ENTITY": "cloned human P2Y1 receptors (Homo sapiens (Human), UniProt P47900)", "RESULT": "9.9 nM"}
{"COMPOUND": "CC(C)(C)CN1CCC2(CC1)CN(c1ccccc1NC(=O)Nc1ccc(OC(F)(F)F)cc1)c1c(O)cc(F)c(-c3ccc(F)cc3)c12 [Example 155]", "TARGET ENTITY": "cloned human P2Y1 receptors (Homo sapiens (Human), UniProt P47900)", "RESULT": "22.5 nM"}
{"COMPOUND": "CC(C)c1nc(NC(=O)Nc2ccccc2N2CC3(CCN(CC(C)(C)C)CC3)c3c(Cl)ccc(O)c32)cs1 [Example 62]", "TARGET ENTITY": "cloned human P2Y1 receptors (Homo sapiens (Human), UniProt P47900)", "RESULT": "13 nM"}
{"COMPOUND": "CC(C)N1CCC2(CC1)CN(c1ccccc1NC(=O)Nc1ccc(OC(F)(F)F)cc1)c1c(O)ccc(C(F)(F)F)c12 [Example 107]", "TARGET ENTITY": "cloned human P2Y1 receptors (Homo sapiens (Human), UniProt P47900)", "RESULT": "14.4 nM"}
{"COMPOUND": "CC(C)(C)CN1CCC2(CC1)CN(c1ccccc1NC(=O)Nc1ccc(OC(F)(F)F)cc1)c1c(O)ccc(C(F)(F)F)c12 [Example 10]", "TARGET ENTITY": "cloned human P2Y1 receptors (Homo sapiens (Human), UniProt P47900)", "RESULT": "4.5 nM"}
{"COMPOUND": "CC(C)(C)CN1CCC2(CC1)CN(c1ccccc1NC(=O)Nc1ccc(C(C)(C)C)cc1)c1c(O)ccc(F)c12 [Example 7]", "TARGET ENTITY": "cloned human P2Y1 receptors (Homo sapiens (Human), UniProt P47900)", "RESULT": "4 nM"}
{"COMPOUND": "CC(C)(C)CN1CCC2(CC1)CN(c1ccccc1NC(=O)Nc1nc3ccc(Cl)nc3s1)c1c(O)ccc(-c3nc4cc(F)ccc4s3)c12 [Example 126]", "TARGET ENTITY": "cloned human P2Y1 receptors (Homo sapiens (Human), UniProt P47900)", "RESULT": "13.1 nM"}
{"COMPOUND": "CC(C)CN1CCC2(CC1)CN(c1ccccc1NC(=O)Nc1nc3ccc(Cl)cc3s1)c1c(O)ccc(Cl)c12 [Example 65]", "TARGET ENTITY": "cloned human P2Y1 receptors (Homo sapiens (Human), UniProt P47900)", "RESULT": "7.8 nM"}
{"COMPOUND": "CC(C)(C)CN1CCC2(CC1)CN(c1ccccc1NC(=O)Nc1csc(Cl)n1)c1c(O)ccc(C#N)c12 [Example 85]", "TARGET ENTITY": "cloned human P2Y1 receptors (Homo sapiens (Human), UniProt P47900)", "RESULT": "3.7 nM"}
{"COMPOUND": "CC(C)(C)CN1CCC2(CC1)CN(c1ccccc1NC(=O)Nc1nc3c(s1)COCC3)c1c(O)ccc(Cl)c12 [Example 48, TFA]", "TARGET ENTITY": "cloned human P2Y1 receptors (Homo sapiens (Human), UniProt P47900)", "RESULT": "8 nM"}
